# target_or_system: T1, monkey GPC3 on HEK293T-monkey GPC3 cells (monkey)
# T1 construct: whole, on cells
# method_summary: FACS on HEK293T-monkey GPC3 cells;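 further: flow cytometry binding of test antibodies to the cells, read as mean fluorescence intensity, with half-maximal concentration taken from fitted curves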
I'd be grateful if you could share measured pEC50 for these entries.
Numbers only, as −log10 of the molar value.

F1.41.17 (antibody, human IgG1, kappa, V domains shown, Human-murine chimeric antibody) VH: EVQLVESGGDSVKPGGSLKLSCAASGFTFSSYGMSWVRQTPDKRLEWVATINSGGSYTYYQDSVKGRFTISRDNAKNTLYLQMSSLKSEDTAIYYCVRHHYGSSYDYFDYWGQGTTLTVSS VL: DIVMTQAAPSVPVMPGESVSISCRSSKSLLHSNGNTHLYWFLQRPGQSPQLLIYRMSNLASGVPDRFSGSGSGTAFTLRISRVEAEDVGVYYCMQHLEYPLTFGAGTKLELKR; 9.64

# return pEC50 for each item in the list
1. F2.169.2 (antibody, human IgG1, kappa, V domains shown, Human-murine chimeric antibody) VH: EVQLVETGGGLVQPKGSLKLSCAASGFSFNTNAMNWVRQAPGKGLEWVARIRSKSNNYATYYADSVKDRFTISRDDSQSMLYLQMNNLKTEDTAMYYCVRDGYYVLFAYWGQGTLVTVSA VL: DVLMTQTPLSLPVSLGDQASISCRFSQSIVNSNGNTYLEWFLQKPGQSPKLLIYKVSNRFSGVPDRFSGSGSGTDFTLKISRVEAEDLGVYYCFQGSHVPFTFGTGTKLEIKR
2. F1.73.9 (antibody, human IgG1, kappa, V domains shown, Human-murine chimeric antibody) VH: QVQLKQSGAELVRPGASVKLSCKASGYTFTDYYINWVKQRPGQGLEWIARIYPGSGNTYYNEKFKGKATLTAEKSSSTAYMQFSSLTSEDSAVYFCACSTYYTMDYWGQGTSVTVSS VL: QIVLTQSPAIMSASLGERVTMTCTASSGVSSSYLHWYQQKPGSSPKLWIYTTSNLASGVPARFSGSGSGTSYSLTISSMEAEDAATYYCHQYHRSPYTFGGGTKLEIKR
3. F4.26.1 (antibody, human IgG1, kappa, V domains shown, Human-murine chimeric antibody) VH: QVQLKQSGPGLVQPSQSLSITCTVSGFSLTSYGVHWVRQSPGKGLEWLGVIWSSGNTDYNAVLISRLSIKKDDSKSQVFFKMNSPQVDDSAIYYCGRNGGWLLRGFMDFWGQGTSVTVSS VL: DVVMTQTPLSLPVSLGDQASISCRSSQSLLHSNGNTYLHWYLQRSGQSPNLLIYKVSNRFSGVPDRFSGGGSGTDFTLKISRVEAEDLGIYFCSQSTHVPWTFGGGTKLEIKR
4. F1.110.24 (antibody, human IgG1, kappa, V domains shown, Human-murine chimeric antibody) VH: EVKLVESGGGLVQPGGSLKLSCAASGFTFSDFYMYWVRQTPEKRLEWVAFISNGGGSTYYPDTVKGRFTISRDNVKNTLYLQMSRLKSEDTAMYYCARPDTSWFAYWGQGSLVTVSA VL: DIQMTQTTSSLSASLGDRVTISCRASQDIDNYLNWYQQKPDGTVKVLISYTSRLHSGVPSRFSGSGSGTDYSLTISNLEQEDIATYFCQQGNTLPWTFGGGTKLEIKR

Return:
1. 9.29
2. 9.49
3. 8.92
4. 9.38
